Target: MMP2 (Homo sapiens)
Sequence (P08253 110-660, species assumed): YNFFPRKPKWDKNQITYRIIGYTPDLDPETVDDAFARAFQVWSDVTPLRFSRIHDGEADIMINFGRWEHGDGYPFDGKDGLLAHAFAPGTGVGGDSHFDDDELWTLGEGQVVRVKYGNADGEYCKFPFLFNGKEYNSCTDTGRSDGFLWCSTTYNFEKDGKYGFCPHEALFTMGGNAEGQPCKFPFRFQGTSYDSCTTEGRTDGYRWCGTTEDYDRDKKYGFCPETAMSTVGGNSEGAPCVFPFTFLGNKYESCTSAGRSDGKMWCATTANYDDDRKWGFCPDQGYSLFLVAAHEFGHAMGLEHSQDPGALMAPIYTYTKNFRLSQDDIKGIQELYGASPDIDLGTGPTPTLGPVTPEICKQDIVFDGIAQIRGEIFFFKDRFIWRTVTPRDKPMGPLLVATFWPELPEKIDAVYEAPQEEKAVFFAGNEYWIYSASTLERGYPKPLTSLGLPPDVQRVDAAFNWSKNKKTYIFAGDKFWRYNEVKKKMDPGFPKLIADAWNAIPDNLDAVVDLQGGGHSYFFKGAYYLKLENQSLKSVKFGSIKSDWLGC
Experiment: Enzymolysis assay of polypeptides by MMP2 (RP-HPLC)
Assay type: biochemical
Details: test polypeptide 100 µmol, activated MMP2, 37°C, 4 h
Square brackets hold non-standard residues; d marks the D form. Peptide text beside a SMILES is read from it. Cit = NC(=O)NCCC[C@H](N)C(=O)O
measured quantity: Enzymolysis efficiency (%)

# molecule, Enzymolysis efficiency (%)
data = [
    ("CC(=O)N[C@@H](CO)C(=O)N1CCC[C@H]1C(=O)N[C@@H](CCCNC(=N)N)C(=O)N[C@@H](CO)C(=O)N[C@@H](CC(C)C)C(=O)N[C@H](C(=O)N[C@@H](CCCNC(N)=O)C(N)=O)C(C)C [Compound 2-P19] (Ac-SPRSLV[Cit]-NH2)", 55.76),
    ("CC(=O)NCC(=O)N1CCC[C@H]1C(=O)N[C@@H](C)C(=O)N[C@@H](C)C(=O)N[C@@H](CC(C)C)C(=O)N[C@H](C(=O)N[C@@H](CCCNC(N)=O)C(N)=O)C(C)C [Compound 1-P12] (Ac-GPAALV[Cit]-NH2)", 38.94),
    ("CC(=O)N[C@@H](CO)C(=O)N1CCC[C@H]1C(=O)N[C@@H](CCCNC(=N)N)C(=O)N[C@@H](CC(N)=O)C(=O)N[C@@H](CC(C)C)C(=O)N[C@H](C(=O)N[C@@H](CCCNC(N)=O)C(N)=O)C(C)C [Compound 2-P21] (Ac-SPRNLV[Cit]-NH2)", 70.46),
    ("CC(=O)NCC(=O)N1CCC[C@H]1C(=O)N[C@@H](CO)C(=O)NCC(=O)N[C@@H](CC(C)C)C(=O)N[C@H](C(=O)N[C@@H](CCCNC(N)=O)C(N)=O)C(C)C [Compound 1-P10] (Ac-GPSGLV[Cit]-NH2)", 75.95),
]

(A) CC(=O)NCC(=O)N1CCC[C@H]1C(=O)N[C@@H](CCCNC(=N)N)C(=O)N1CCC[C@H]1C(=O)N[C@@H](CC(C)C)C(=O)N[C@H](C(=O)N[C@@H](CCCNC(N)=O)C(N)=O)C(C)C [Compound 2-P8] (Ac-GPRPLV[Cit]-NH2)
(B) CC[C@H](C)[C@H](NC(C)=O)C(=O)N1CCC[C@H]1C(=O)N[C@H](C(=O)N[C@@H](CO)C(=O)N[C@@H](CC(C)C)C(=O)N[C@H](C(=O)N[C@@H](CCCNC(N)=O)C(N)=O)C(C)C)C(C)C [Compound 1-P4] (Ac-IPVSLV[Cit]-NH2)
Request: Between A and B , whose recorded Enzymolysis efficiency (%) is greater? Answer format: the label of the selected item.
Response: A
(A: 55.07%, B: 21.87%)

(1) CC(=O)N[C@@H](CO)C(=O)N1CCC[C@H]1C(=O)N[C@@H](CCCNC(N)=O)C(=O)N1CCC[C@H]1C(=O)N[C@@H](CC(C)C)C(=O)N[C@H](C(=O)N[C@@H](CCCNC(N)=O)C(N)=O)C(C)C [Compound 2-P24] (Ac-SP[Cit]PLV[Cit]-NH2)
(2) CC(=O)NCC(=O)N1CCC[C@H]1C(=O)N[C@@H](C)C(=O)N[C@@H](CC(N)=O)C(=O)N[C@@H](CC(C)C)C(=O)N[C@H](C(=O)N[C@@H](CCCNC(N)=O)C(N)=O)C(C)C [Compound 2-P26] (Ac-GPANLV[Cit]-NH2)
Request: From the items above, decide which of 1 and 2 has the lower Enzymolysis efficiency (%) reading. Reply briefly: the label of your chosen item.
Response: 1

---

Target: MMP9 (Homo sapiens, UniProt P14780)
Sequence (P14780 107-707 limits assumed, species assumed): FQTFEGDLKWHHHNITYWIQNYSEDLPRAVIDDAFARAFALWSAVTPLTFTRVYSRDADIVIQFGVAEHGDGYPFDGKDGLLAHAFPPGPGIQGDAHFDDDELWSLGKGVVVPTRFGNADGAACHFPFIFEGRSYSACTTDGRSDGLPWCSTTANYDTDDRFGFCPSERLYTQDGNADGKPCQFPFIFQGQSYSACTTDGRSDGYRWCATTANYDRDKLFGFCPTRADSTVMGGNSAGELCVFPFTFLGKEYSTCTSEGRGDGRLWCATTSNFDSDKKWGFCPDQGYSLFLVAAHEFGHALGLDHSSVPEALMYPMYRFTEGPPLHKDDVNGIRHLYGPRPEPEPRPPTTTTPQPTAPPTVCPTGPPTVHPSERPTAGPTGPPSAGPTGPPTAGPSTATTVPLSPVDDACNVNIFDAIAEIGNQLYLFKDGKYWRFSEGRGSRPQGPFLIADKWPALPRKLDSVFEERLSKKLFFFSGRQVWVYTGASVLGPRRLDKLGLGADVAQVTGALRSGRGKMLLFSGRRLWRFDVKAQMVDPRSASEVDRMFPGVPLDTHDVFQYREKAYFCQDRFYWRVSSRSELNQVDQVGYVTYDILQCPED
Assay: Enzymolysis assay of polypeptides by MMP9 (RP-HPLC)
Type: biochemical
Settings: polypeptide 100 µmol with activated MMP9, 37°C, 4 h, RP-HPLC peak areas
Square brackets hold non-standard residues; d marks the D form. Peptide text beside a SMILES is read from it. Cit = NC(=O)NCCC[C@H](N)C(=O)O
measured quantity: Enzymolysis efficiency (%)

# compound, tested system, measured quantity, units, recorded value
data = [
    ("CC(=O)N1CCC[C@H]1C(=O)N[C@@H](CCCNC(=N)N)C(=O)N[C@@H](CO)C(=O)N[C@@H](CC(C)C)C(=O)N[C@H](C(=O)N[C@@H](CCCNC(N)=O)C(N)=O)C(C)C [Compound 2-P2] (Ac-PRSLV[Cit]-NH2)", "MMP9 (Homo sapiens, UniProt P14780)", "Enzymolysis efficiency (%)", "%", 79.34),
    ("CC(=O)N[C@@H](CO)C(=O)N1CCC[C@H]1C(=O)N[C@@H](CCCNC(N)=O)C(=O)N1CCC[C@H]1C(=O)N[C@@H](CC(C)C)C(=O)N[C@H](C(=O)N[C@@H](CCCNC(N)=O)C(N)=O)C(C)C [Compound 2-P24] (Ac-SP[Cit]PLV[Cit]-NH2)", "MMP9 (Homo sapiens, UniProt P14780)", "Enzymolysis efficiency (%)", "%", 38.72),
]

(A) CC(=O)NCC(=O)N1CCC[C@H]1C(=O)N[C@@H](CCCNC(N)=O)C(=O)N1CCC[C@H]1C(=O)N[C@@H](CC(C)C)C(=O)N[C@H](C(=O)N[C@@H](CCCNC(N)=O)C(N)=O)C(C)C [Compound 2-P11] (Ac-GP[Cit]PLV[Cit]-NH2)
(B) CC(=O)NCC(=O)N1CCC[C@H]1C(=O)N[C@@H](CCCNC(=N)N)C(=O)NCC(=O)N[C@@H](CC(C)C)C(=O)N[C@H](C(=O)N[C@@H](CCCNC(N)=O)C(N)=O)C(C)C [Compound 1-P11] (Ac-GPRGLV[Cit]-NH2)
Request: Which value of Enzymolysis efficiency (%) is numerically greater: that of A or that of B ? Selection: enter the item's label.
Response: B

---

Target: MMP9 (Homo sapiens)
Assay: Enzymolysis assay of polypeptides by MMP9 (RP-HPLC)
Assay type: biochemical
Details: polypeptide 100 µmol with activated MMP9, 37°C, 4 h, RP-HPLC peak areas
Numbered stars: 1 amine (or outer) side, 2 acyl side, 3 side chain; on linkers, the order of the positions; unused ones are H or OH. Square brackets hold non-standard residues; d marks the D form. Peptide text beside a SMILES is read from it. Cit = NC(=O)NCCC[C@H](N)C(=O)O; X1 = CN(C)CC(N[*:1])C(=O)[*:2]
measured quantity: Enzymolysis efficiency (%)

# molecule, tested system, measured quantity, recorded value
records = [
    ("CC(=O)NCC(=O)N1CCC[C@H]1C(=O)N[C@@H](CCCNC(=N)N)C(=O)N[C@@H](CC(N)=O)C(=O)N[C@@H](CC(C)C)C(=O)N[C@H](C(=O)N[C@@H](CCCNC(N)=O)C(N)=O)C(C)C [Compound 2-P9] (Ac-GPRNLV[Cit]-NH2)", "MMP9 (Homo sapiens)", "Enzymolysis efficiency (%)", 100.00),
    ("CC(=O)N1CCC[C@H]1C(=O)N[C@@H](CCCNC(=N)N)C(=O)N1CCC[C@H]1C(=O)N[C@@H](CC(C)C)C(=O)N[C@H](C(=O)N[C@@H](CCCNC(N)=O)C(N)=O)C(C)C [Compound 2-P4] (Ac-PRPLV[Cit]-NH2)", "MMP9 (Homo sapiens)", "Enzymolysis efficiency (%)", 61.01),
    ("CC(=O)N[C@@H](Cc1c[nH]cn1)C(=O)N1CCC[C@H]1C(=O)N[C@@H](CCCNC(=N)N)C(=O)N1CCC[C@H]1C(=O)N[C@@H](CC(C)C)C(=O)N[C@H](C(=O)N[C@@H](CCCNC(N)=O)C(N)=O)C(C)C [Compound 2-P14] (Ac-HPRPLV[Cit]-NH2)", "MMP9 (Homo sapiens)", "Enzymolysis efficiency (%)", 58.33),
]

(a) CC(=O)N[C@@H](CO)C(=O)N1CCC[C@H]1C(=O)N[C@@H](CCCNC(N)=O)C(=O)N[C@@H](CO)C(=O)N[C@@H](CC(C)C)C(=O)N[C@H](C(=O)N[C@@H](CCCNC(N)=O)C(N)=O)C(C)C [Compound 2-P23] (Ac-SP[Cit]SLV[Cit]-NH2)
(b) CC(=O)N[C@@H](Cc1c[nH]cn1)C(=O)N1CCC[C@H]1C(=O)N[C@@H](CCCNC(=N)N)C(=O)NCC(=O)N[C@@H](CC(C)C)C(=O)N[C@H](C(=O)N[C@@H](CCCNC(N)=O)C(N)=O)C(C)C [Compound 2-P12] (Ac-HPRGLV[Cit]-NH2)
(c) CC(=O)NCC(=O)N1CCC[C@H]1C(=O)N[C@@H](CCC(N)=O)C(=O)NCC(=O)N[C@@H](CC(C)C)C(=O)N[C@H](C(=O)N[C@@H](CCCNC(N)=O)C(N)=O)C(C)C [Compound 1-P8] (Ac-GPQGLV[Cit]-NH2)
Request: With regard to Enzymolysis efficiency (%), arrange the entries in ascending order, please. Your answer should be the labels, listed in the requested order.
Response: c, a, b

(A) CC(=O)NCC(=O)N1CCC[C@H]1C(=O)N[C@@H](CCCNC(=N)N)C(=O)N[C@@H](CO)C(=O)N[C@@H](CC(C)C)C(=O)N[C@H](C(=O)N[C@@H](CCCNC(N)=O)C(N)=O)C(C)C [Compound 2-P7] (Ac-GPRSLV[Cit]-NH2)
(B) CC(=O)NCC(=O)N1CCC[C@H]1C(=O)N[C@@H](CCCNC(=N)N)C(=O)NCC(=O)NC(CN(C)C)C(=O)N[C@H](C(=O)N[C@@H](CCCNC(N)=O)C(N)=O)C(C)C (stereo partly shown) [Compound 2-P27] (Ac-GPRG[X1]V[Cit]-NH2)
(C) CC(=O)NCC(=O)N1CCC[C@H]1C(=O)N[C@@H](C)C(=O)NCC(=O)N[C@@H](CC(C)C)C(=O)N[C@H](C(=O)N[C@@H](CCCNC(N)=O)C(N)=O)C(C)C [Compound 1-P7] (Ac-GPAGLV[Cit]-NH2)
Request: Sort the 3 molecules by Enzymolysis efficiency (%); largest first, smallest last. Present the labels in the sequence the task asks for.
Response: A, C, B

From: patent EP4796557A1
